B1: NECAB1 (parent)
chain: FSPNSPQFNVSGPGLLEEDNQWMT

Variants of: B1
Experiment: protein stability index of a GFP-peptide fusion (GPS, HEK-293T) (PSI 1-6); higher = more stable;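 further: lentivirally expressed fusions sorted by FACS into six bins by GFP to DsRed ratio, PSI derived from sequencing read proportions per bin multiplied by bin number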
Settings: c terminus: a fixed tail appended
# protein stability index listing for each entry below
// no unit string in output, number only

Some variants with known protein stability index results, for comparison:
# variant designation, protein stability index
records = [
    ("S11V", 2.51),
    ("P3N", 2.76),
    ("D19M", 2.57),
    ("E18K", 3.2),
]

Identify protein stability index associated with the variant "S2M"
3.39

Identify protein stability index associated with the variant "N4H"
2.53

Identify protein stability index associated with the variant "P13N"
3.5

Identify protein stability index associated with the variant "N9W"
2.41

Identify protein stability index associated with the variant "G12V"
2.86
